Origin of the recorded values: patent US20160053277A1

- ASSAY NAME: 14C assay with IPTG-induced recombinant E. coli cells: 14CO2 captured from [14C]-carboxyl-labeled dicamba
- TEST CONDITIONS: induced recombinant E. coli cells, [14C]-carboxyl-labeled dicamba, 14CO2 capture

MOLECULE	Dicamba Decarboxylase Activity
70 (protein, listed as Alicyclobacillus acidocaldarius) MAIEPNRAADVHTHFLPTEVLEFLKREPRIQVDLERRAPDKEPFLTVEGRWSFELKRMFVDFEAFASAYRQAGIGLALVSPLPQLFVYHLPAEMGAQVAEVYNDALRDVLAPHRERFRPLATLPLADPTAAARELERRMDEGFVGAIVGPGVGEALIGDEAFWPLWEVADARRAVLFLHPLLHADPRAARLMLPNLVGVPWETTLAAAHLVLSGLLDRYPGARVLLAHGGGFLPYQIGRIEQGYDVWPQVRGRLQDRPTAYLRRMFYDNVLWSDAALRCLIDVVGADRVLAGSDFPFDLSAWPPRPGADVSVLAGGSGREGRLS	Low
